Tested on: 422866-222-R5-J1-PDC complex spheroids viability;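 note: spheroids exposed to compounds for 7 days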
assay_explanation: Anticancer human tumor 422866-222-R5-J1-PDC patient-derived pancreatic adenocarcinoma cell line growth inhibition [RAS]
particulars: curve of first compound; second compound 0.003 µM
pIC50: −log10 of the molar value.
observed_property: pIC50

- Cc1nc(N2CCC3(CC2)COC(C)C3N)c(CO)nc1Sc1ccnc(N)c1Cl (centres undefined) + CCn1c(-c2cc(N3CCN(C)CC3)cnc2C(C)OC)c2c3cc(ccc31)-c1csc(n1)CC(NC(=O)C1CC1C)C(=O)N1CCCC(N1)C(=O)OCC(C)(C)C2: > 7.50
- CC1(C)CCC(Nc2ncc(C(F)(F)F)c(-c3c[nH]c4c(P(C)(C)=O)c(C#N)ccc34)n2)CN1 (centres undefined) + CCn1c(-c2cc(N3CCN(C)CC3)cnc2C(C)OC)c2c3cc(ccc31)-c1csc(n1)CC(NC(=O)C1CC1C)C(=O)N1CCCC(N1)C(=O)OCC(C)(C)C2: > 9.02

Can you share its pIC50? I mean this molecule: C[C@@H](NC(=O)c1ncnc(N)c1Cl)c1ncc(C(=O)Nc2cc(C(F)(F)F)c(Cl)cn2)s1 + CCn1c(-c2cc(N3CCN(C)CC3)cnc2C(C)OC)c2c3cc(ccc31)-c1csc(n1)CC(NC(=O)C1CC1C)C(=O)N1CCCC(N1)C(=O)OCC(C)(C)C2
> 7.50

Would you mind telling me what pIC50 value was observed for CCc1c2c(nc3ccc(O)cc13)-c1cc3c(c(=O)n1C2)COC(=O)[C@]3(O)CC + CCn1c(-c2cccnc2C(C)OC)c2c3cc(ccc31)N1CCOC(CC(NC(=O)C(C(C)C)N(C)C(=O)C3(F)CCN(C(=O)C#CC(C)(C)N(C)C)CC3)C(=O)N3CCCC(N3)C(=O)OCC(C)(C)C2)C1 ?
> 9.02
